TGT: CB1 receptor (human) (Homo sapiens, UniProt P21554)
Sequence (P21554 whole entry): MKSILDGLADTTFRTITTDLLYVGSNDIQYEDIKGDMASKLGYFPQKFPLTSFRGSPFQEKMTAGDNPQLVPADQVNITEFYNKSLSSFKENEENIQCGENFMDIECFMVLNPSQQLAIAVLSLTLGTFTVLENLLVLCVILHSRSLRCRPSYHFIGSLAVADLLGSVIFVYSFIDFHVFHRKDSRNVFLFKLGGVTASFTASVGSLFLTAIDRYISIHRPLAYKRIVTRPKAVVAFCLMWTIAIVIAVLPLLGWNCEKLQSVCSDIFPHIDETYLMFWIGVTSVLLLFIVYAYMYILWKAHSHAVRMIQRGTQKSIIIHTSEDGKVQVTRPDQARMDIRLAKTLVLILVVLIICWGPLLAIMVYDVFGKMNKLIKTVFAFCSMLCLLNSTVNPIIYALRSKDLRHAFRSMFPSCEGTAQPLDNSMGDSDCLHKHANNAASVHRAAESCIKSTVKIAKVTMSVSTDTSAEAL
ASSAY_COMMENT: cell-based
ASSAY_ENDPOINT: EC50 (nM)
State just the number; it will be interpreted in nM.

COC(=O)N1C/C(=C\c2ccc(OC)cc2)c2c(c(C(=O)N[C@H](C)c3ccccc3)nn2-c2ccc(Cl)cc2Cl)C1 [Cpd 44]    0.2
COc1ccc(/C=C2\CN(S(C)(=O)=O)Cc3c(C(=O)N[C@H](C)c4ccccc4)nn(-c4ccc(Cl)cc4Cl)c32)cc1 [Cpd 40]    1
CCOC(=O)CN1C/C(=C\c2ccc(F)cc2)c2c(c(C(=O)N[C@H](C)c3ccccc3)nn2-c2ccc(Cl)cc2)C1 [Cpd 72]    5

Could you now look at the following molecule, please?
input: # EC50 lookup, item C[C@@H](NC(=O)c1nn(-c2ccc(Cl)cc2Cl)c2c1CNC/C2=C\c1ccc(F)cc1)c1ccccc1 [Cpd 15]
output: 10

* * *

Listing: IC50 of selected compounds
TGT: Cannabinoid CB1 Receptor (Homo sapiens)
Construct: expressed in transfected cells
Sequence (P21554 whole entry): as above
ASSAY_COMMENT: Binding assay for CB1 agonists or inverse agonists (radioligand competition, membranes of transfected SK-N-MC cells)
EXPERIMENTAL_CONDITIONS: human CB1, SK-N-MC cell membranes; calculated by linear regression from percent inhibition at various concentrations; read-out: Cannabinoid CB1 Receptor Binding IC50
Entry rule: numbers only, all in nM.

COC(=O)N1CCc2c(c(C(=O)NC3C4CC5CC(C4)CC3C5)nn2C2CCCCC2)C1 (stereo not drawn)    2700
C[C@@H](NC(=O)c1nn(Cc2ccccc2)c2c1CN(C(=O)OC(C)(C)C)CC2)C1CCCCC1    300

Now take the following compound into account.
input: Which IC50 is listed for CN(C)C(=O)N1CCc2c(c(C(=O)NC3C4CC5CC(C4)CC3C5)nn2C2CCCCC2)C1 (stereo not drawn) ?
output: 5500

* * *

TGT: CB1 receptor (human) (Homo sapiens, UniProt P21554)
ASSAY_COMMENT: cell-based
EC50 strictly less than 6 nM = true. Otherwise false.

Would you please look over these solved cases?
COC(=O)N1C/C(=C\c2ccc(F)cc2)c2c(c(C(=O)N[C@H](C)c3ccccc3)nn2-c2ccc(Cl)cc2Cl)C1 [Cpd 1]    true
CC(NC(=O)c1nn(-c2ccc(Cl)cc2Cl)c2c1CNC/C2=C\c1ccc(F)cc1)c1ccccn1 (stereo not shown) [Cpd 21]    false
COC(=O)N1CCc2c(c(C(=O)NC3C4(C)CCC(C4)C3(C)C)nn2Cc2ccccc2)C1 (stereo not shown) [Cpd 106]    false
CCNC(=O)N1C/C(=C\c2ccc(F)cc2)c2c(c(C(=O)N[C@H](C)c3ccccc3)nn2-c2ccc(Cl)cc2Cl)C1 [Cpd 19]    true
C[C@@H](NC(=O)c1nn(-c2ccc(Cl)cc2)c2c1CNC/C2=C\c1ccc(F)cc1)c1ccccc1 [Cpd 66]    false

input: Please determine if CCNC(=O)N1C/C(=C\c2ccc(F)cc2)c2c(c(C(=O)N[C@H](C)C3CCCCC3)nn2-c2ccc(Cl)cc2Cl)C1 [Cpd 32] is below 6 nM in terms of EC50.
output: true

input: Next entry: Cc1ccc(S(=O)(=O)N2C/C(=C\c3ccc(F)cc3)c3c(c(C(=O)N[C@H](C)C4CCCCC4)nn3-c3ccc(Cl)cc3Cl)C2)cc1 [Cpd 31]
output: false

input: // same read-out, input: CCC(=O)N1CCc2c(c(C(=O)NC3C4(C)CCC(C4)C3(C)C)nn2C2CCCCC2)C1 (stereo not shown) [Cpd 122]
output: false

input: Now the compound COc1ccc(/C=C2\CN(C(C)=O)Cc3c(C(=O)NC(C)c4ccccn4)nn(-c4ccc(Cl)cc4Cl)c32)cc1 (stereo not shown) [Cpd 60]
output: false

input: Also C[C@@H](NC(=O)c1nn(-c2ccc(Cl)cc2Cl)c2c1CN(S(=O)(=O)N(C)C)C/C2=C\c1ccc(F)cc1)c1ccccc1 [Cpd 39] ?
output: true

input: Record: CC(=O)N1C/C(=C\c2ccc(F)cc2)c2c(c(C(=O)N[C@@H](C)C3CCCCC3)nn2-c2ccc(Cl)cc2Cl)C1 [Cpd 6]
output: false

input: What about this compound? O=C(NN1CCCCC1)c1nn(-c2ccc(Cl)cc2Cl)c2c1CNC/C2=C\c1ccc(F)cc1 [Cpd 12]
output: false

input: Continue with O=C(NN1CCCCC1)c1nn(-c2ccc(Cl)cc2)c2c1CNC/C2=C\c1ccc(F)cc1 [Cpd 76]
output: false

* * *

Here, each record is paired with measured CB1 Receptor Functional Activity (change in functional activity, CRE β-gal) data.
TGT: CB1 receptor (human) (Homo sapiens, UniProt P21554)
ASSAY_COMMENT: cell-based
EXPERIMENTAL_CONDITIONS: one compound concentration; β-galactosidase activity relative to vehicle treated cells
Report the value in % with no unit label.

Below: 4 molecules and their reported CB1 Receptor Functional Activity (change in functional activity, CRE β-gal).
Cc1ccc(S(=O)(=O)N2CCc3c(c(C(=O)NC4C5(C)CCC(C5)C4(C)C)nn3Cc3ccccc3)C2)cc1 (centres unmarked) [Cpd 125]    27
C[C@@H](NC(=O)c1nn(Cc2ccccc2)c2c1CN(C(=O)OC(C)(C)C)CC2)C1CCCCC1 [Cpd 103]    8
CC(C)(C)OC(=O)N1CCc2c(c(C(=O)NC3C4(C)CCC(C4)C3(C)C)nn2C2CCCCC2)C1 (centres unmarked) [Cpd 117]    −10
CC(=O)N1CCc2c(c(C(=O)NC3C4(C)CCC(C4)C3(C)C)nn2-c2ccccc2)C1 (centres unmarked) [Cpd 112]    45

Next:
input: May I ask what CB1 Receptor Functional Activity (change in functional activity, CRE β-gal) has been recorded for CC(C)(C)OC(=O)N1CCc2c(c(C(=O)N[C@H]3C4(C)CCC(C4)C3(C)C)nn2Cc2ccccc2)C1 (some centres unmarked) [Cpd 104] ?
output: −11

* * *

compounds and their reported inhibition at 0.2 µM
TGT: Cannabinoid CB2 Receptor (Homo sapiens)
Construct: expressed in transfected cells
Sequence (P34972 whole entry): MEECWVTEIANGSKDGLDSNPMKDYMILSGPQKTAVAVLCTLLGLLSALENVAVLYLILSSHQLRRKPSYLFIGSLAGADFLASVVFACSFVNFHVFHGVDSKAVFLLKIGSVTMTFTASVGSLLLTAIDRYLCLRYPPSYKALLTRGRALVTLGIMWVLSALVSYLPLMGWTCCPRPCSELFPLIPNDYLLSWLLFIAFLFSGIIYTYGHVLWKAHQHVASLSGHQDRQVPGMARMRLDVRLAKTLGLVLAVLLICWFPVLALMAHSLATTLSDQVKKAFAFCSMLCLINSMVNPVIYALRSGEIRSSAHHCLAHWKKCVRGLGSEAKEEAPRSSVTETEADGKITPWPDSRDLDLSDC
ASSAY_COMMENT: Binding assay for CB2 agonists or inverse agonists (radioligand competition, membranes of transfected SK-N-MC cells)
EXPERIMENTAL_CONDITIONS: read-out: Cannabinoid CB2 Receptor Binding percent inhibition
// units = %; emit number, no label

Consider the following illustrative entries.
COc1ccc(/C=C2\CN(C(C)=O)Cc3c(C(=O)NN4CCCCC4)nn(-c4ccc(Cl)cc4Cl)c32)cc1 [Cpd 54]    24
CCNC(=O)N1C/C(=C\c2ccc(F)cc2)c2c(c(C(=O)NN3CCCCC3)nn2-c2ccc(Cl)cc2Cl)C1 [Cpd 34]    12
COc1ccc(/C=C2\CN(C(C)=O)Cc3c(C(=O)N[C@H](C)c4ccccc4)nn(-c4ccc(Cl)cc4Cl)c32)cc1 [Cpd 42]    38
COC(=O)N1C/C(=C\c2ccc(OC)cc2)c2c(c(C(=O)NC(C)c3ccccn3)nn2-c2ccc(Cl)cc2Cl)C1 (stereo not shown) [Cpd 62]    70
COc1ccc(/C=C2\CN(S(=O)(=O)N(C)C)Cc3c(C(=O)NN4CCCCC4)nn(-c4ccc(Cl)cc4Cl)c32)cc1 [Cpd 58]    53
COc1ccc(/C=C2\CN(C(=O)OC(C)(C)C)Cc3c(C(=O)NC(C)c4ccccn4)nn(-c4ccc(Cl)cc4Cl)c32)cc1 (stereo not shown) [Cpd 36]    27

input: // returns reported inhibition at 0.2 µM for input C[C@H](NC(=O)c1nn(-c2ccc(Cl)cc2Cl)c2c1CNC/C2=C\c1ccc(F)cc1)C1CCCCC1 [Cpd 5]
output: 8

input: Another compound: Cc1ccc(S(=O)(=O)N2C/C(=C\c3ccc(F)cc3)c3c(c(C(=O)NC(C)c4ccccn4)nn3-c3ccc(Cl)cc3Cl)C2)cc1 (stereo not shown) [Cpd 26]
output: 24

input: Likewise for COC(=O)N1C/C(=C\c2ccc(F)cc2)c2c(c(C(=O)NC(C)c3ccccn3)nn2-c2ccc(Cl)cc2Cl)C1 (stereo not shown) [Cpd 23] ?
output: 18

* * *

Reported IC50 values follow for various molecules
TGT: Cannabinoid CB1 Receptor (Homo sapiens)
Construct: expressed in transfected cells
ASSAY_COMMENT: Binding assay for CB1 agonists or inverse agonists (radioligand competition, membranes of transfected SK-N-MC cells)

input: Under Cannabinoid CB1 Receptor (Homo sapiens): IC50 value of CCOC(=O)CN1C/C(=C\c2ccc(OC)cc2)c2c(c(C(=O)NC(C)c3ccccn3)nn2-c2ccc(Cl)cc2Cl)C1 (stereo not shown) ?
output: 0.01 µM

* * *

TGT: Cannabinoid CB1 Receptor (Homo sapiens)
Construct: expressed in transfected cells
ASSAY_COMMENT: Binding assay for CB1 agonists or inverse agonists (radioligand competition, membranes of transfected SK-N-MC cells)
EXPERIMENTAL_CONDITIONS: test concentration of 0.2 μM; compounds without an IC50 binding value; read-out: Cannabinoid CB1 Receptor Binding percent inhibition
ASSAY_ENDPOINT: inhibition at 0.2 µM (%)
State just the number; it will be interpreted in %.

CC(=O)N1C/C(=C\c2ccc(F)cc2)c2c(c(C(=O)NN3CCCCC3)nn2-c2ccc(Cl)cc2)C1 [Cpd 81]    10

input: Any idea what inhibition at 0.2 µM was measured for COC(=O)N1C/C(=C\c2ccc(F)cc2)c2c(c(C(=O)NN3CCC(O)CC3)nn2-c2ccc(Cl)cc2Cl)C1 [Cpd 146] ?
output: 40

input: Another compound to look at: COc1ccc(/C=C2\CN(C(=O)OC(C)(C)C)Cc3c(C(=O)NN4CC5CCCC5C4)nn(-c4ccc(Cl)cc4Cl)c32)cc1 (stereo not shown) [Cpd 94]
output: 70

input: Next compound up: CC(C)(C)OC(=O)N1C/C(=C\c2ccc(F)cc2)c2c(c(C(=O)NN3CC4CCCC4C3)nn2-c2ccc(Cl)cc2Cl)C1 (stereo not shown) [Cpd 88]
output: 53

input: Record: O=C(NN1CCC(O)CC1)c1nn(-c2ccc(Cl)cc2Cl)c2c1CNC/C2=C\c1ccc(F)cc1 [Cpd 145]
output: 12

input: Next compound up: CC(NC(=O)c1nn(-c2ccc(Cl)cc2)c2c1CN(C(=O)OC(C)(C)C)C/C2=C\c1ccc(F)cc1)c1ccccn1 (stereo not shown) [Cpd 73]
output: 50
